- TARGET UNDER TEST: HLA-A*02:03
- TEST PROTOCOL: IEDB peptide-MHC binding, purified MHC/competitive/radioactivity; filed as Kd, often an IC50 or EC50 that approximates it; bounds were set here for any values at or beyond the usual limits of such assays
- STATED CONDITIONS: source organism: HIV-1 M:B_ARV2/SF2
MEASURED PROPERTY: Kd (nM)
Numbers only; they are read as nM.

Exam item: Field request: Kd | item: LTFGWCFKLV
Marked response: 167

====

- TARGET UNDER TEST: HLA-A*02:19
- TEST PROTOCOL: IEDB peptide-MHC binding, purified MHC/direct/fluorescence; filed as Kd, often an IC50 or EC50 that approximates it; bounds were set here for any values at or beyond the usual limits of such assays
- STATED CONDITIONS: source organism: Reston ebolavirus
MEASURED PROPERTY: Kd

Exam item: Query Kd on HLA-A*02:19 for LPRERFRKT
Marked response: ≥ 20 µM
